soluble fraction (log2) values by entry
experiment: soluble fraction after stress (log2 fold change); higher = more stays soluble; pooled small domains, quantitative proteomics; conditions: stress: 75 degC;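 further: 20 min heating vs room temperature control held 20 min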
outcome-measure: soluble fraction (log2)

[[record]]
input_sequence = "HMSGIGTTIKMLRENKNISQEELGNVLGVSDKTISSWEINRTEPKMGIVQLLADYFGVSTDYLIKG"
measurement = -0.447

[[record]]
input_sequence = "HMSTKEFTIHAGEWSYRVSQKLENLGLVSDAKKFDQYLEDNGYSSKIKIGHYTISKDADFEEIAKEIT"
measurement = 0.632

[[record]]
input_sequence = "HMVYNQYILTQSVRLREEPGISGRVIRLLETGTTVELVDTVVVNKDDYDWVWVKLSDGAVGWIIKSAIDI"
measurement = -1.57

[[record]]
input_sequence = "HMSKLSLREIVKKFEEQIIQLHKRGLNHSEISREIVTKNSIDLGDSHIDSLRRAISVHLQTP"
measurement = -0.755

[[record]]
input_sequence = "HMEIDMQEGIKTIILMMKEHNITPSEAMKIYKSANGDIHYISKIYNHFKNKGADNFVALMIKMVKPGEFIE"
measurement = -2

[[record]]
input_sequence = "HMEDPVAQEARAAFEVGRLLAAATGPVTLAAIRRAIDLPEERLEEILRRLEESGAVRRARDGWLPG"
measurement = -0.0316

[[record]]
input_sequence = "HMPKLTKEEIQFIDNYLKNSGVEYIDTRAEVVDHVASEIESRLSANNTTNFYEEFKVYMVQHKETLLK"
measurement = -0.21

[[record]]
input_sequence = "HMTNQEFNAAFKPFLDYFPTTEMTKEKINIYYLALSDLSKEQLGSAFISMVKNRVYKNFPQVAEIRQYATN"
measurement = -0.803

[[record]]
input_sequence = "HMDIKDRSGVTIDESNEAQQESIIRESWAEQKISGNVDNYIAYLKANGMLLETAKIELAALQEKDASLRE"
measurement = 0.774

[[record]]
input_sequence = "HMENYTYKYATSANVNIREEPNTDSTILGKTLLNTEFQVVEDVDGWSKITTEAGYAYIKSEYLSDTE"
measurement = 0.502

[[record]]
input_sequence = "HMKPEQIELTFSGTTAMRLDKFLAENQPGLSRAKLQAIISSGSVEVNGKVITKQAFKLDPGDLVKALIPE"
measurement = -1.23

[[record]]
input_sequence = "HMIADSSSIHQDAKQQLHSYLRTNIQPLMRAGKQLDLKDILHHVTIRKPKLVQQLGMKQVQHMVQVLLD"
measurement = -1.04

[[record]]
input_sequence = "HMYGQEVKVLGLFGDRAFIKVDEKSAVIRIGQSHQNVQLKSISNQKAILLVDNKDIALGLGDSYQSA"
measurement = -1.69

[[record]]
input_sequence = "HMYGVAEFDEKGNVLSIEEKPVQPKSNYAVVGLYFYPNKVVGVASGIKPSARGELEITTVNQTFLRDEELK"
measurement = 0.204

[[record]]
input_sequence = "HMKQDYYSILGVMRDASQEEIKRAYLDAAQRLHPDRNTSAGDTEMFLDVQQAYEVLSNPKRRAQYDATLP"
measurement = 0.383

[[record]]
input_sequence = "HMSNLENSLNESLSLLKSNKYNEALEILKKIEIEDSRVFFLLGTIYSVMKNINLGEEFLIKASK"
measurement = -1.64

[[record]]
input_sequence = "HMTTQTTKYVNTTAGLNVRTGPSTSYAKIVTLSYGQSVNVLSTSNGWSKINYNGSTGYVSSQYLQSTKPS"
measurement = -2.28


====

test: soluble fraction after stress (log2 fold change); higher = more stays soluble; pooled small domains, quantitative proteomics; conditions: stress: 75 degC
soluble fraction (log2) values by entry
outcome-measure: soluble fraction (log2)

[[record]]
input_sequence = "HMAIWAVFYKNEPFNLKSFNSLTSYPGPKYKKTSFSNPGHALNLAKKLNLTFGTEDFQVVKLTQGTIV"
measurement = -2.69

[[record]]
input_sequence = "HMHGQGTYTSPDGTKYVGDWQDEKMHGQGTYTYPDGMKFVGEFKDNKPWNGTGYDKYGNVKATFSNGVGKS"
measurement = -0.0508

[[record]]
input_sequence = "HMDPKWSHVRRLLDDENPIVRKALTEELIRSPEEGLAFLEQVIREPDHLLAKHAHNLLSELGWV"
measurement = 0.192

[[record]]
input_sequence = "HMNPSPYLRRHLSGDWGDLDEDDRRSNDAALASGEARLLSSYQVDPDLKLWIITEWDRSVTTLLLPSE"
measurement = -0.0994

[[record]]
input_sequence = "HMKAKTYTVQYIDEGKIIKEEELEEGSIINAPEVTKEGHTFIGWYEGEEKYDVYEPITRNLILESKNEIN"
measurement = -0.176

[[record]]
input_sequence = "HMELSPAELGERLKVARETANVTQDAGAKAAGIARTTLVAIEKGQRSARIDELQTLSRRYGVSVNSLLRR"
measurement = -0.154

[[record]]
input_sequence = "HMSTTYLNEGDRITLTDSVNIRTSMSETADRVGLAYQGDVVTVIMSYAEGWTKVSWNGQTGYAKTEYL"
measurement = -1.52

[[record]]
input_sequence = "HMNHLLYPNPANNFIWIKNSTSNTAVIYNLQGVMSKVEVSEEGKIDISRFSPGLYMIKQGERIYKFTIA"
measurement = -1.75

[[record]]
input_sequence = "HMAVRTELLALPAGWHGDASRLSTALAALQGVREAVVIASEGVAYLKVHGHDWDRDGARELLQN"
measurement = -1.12

[[record]]
input_sequence = "HMTMRFVVADGQNFGSIAQSKALEAVKKGNTEFNYKDVDYTVDIQSDDFYVVYQGRDIMGYASR"
measurement = -1.11

[[record]]
input_sequence = "HMGDADDLTRIKGIGPKLSKTLNELGIYHFRQIAGWQSDEADWVDDYLSFKGRVMREQWIEQAQKFAS"
measurement = -0.475

[[record]]
input_sequence = "HMKNNAIAPDQVVSLLKNEVNYNDDGRIEILDNNKNIRYNSKGELLTIEERVNEFLDANPHFRK"
measurement = 0.0664

[[record]]
input_sequence = "HMKIGIYPGTFDPITHGHTDIIRRSLRVFDKVVVAVAPNPSKHPLFTLTERLEMIRIVMKELEHVEVT"
measurement = 0.159

[[record]]
input_sequence = "HMGARHPLPYPFARAHGLLLEADGERSTLWASTNVSPAALSEVMRKYAVDVIEEEPPETLSQRIAAAYAA"
measurement = -0.155

[[record]]
input_sequence = "HMTQEHDESVNLGKRLLDQALSRFGTSYRQLKKSEIKRILQSSGASTFKYILHQIGLGNRVPLAIANLIV"
measurement = -0.0539

[[record]]
input_sequence = "HMEGEVVESPLVGVAYLASGPDKPAFVQVGDSVSKGQTLLIIEAMKVMNEVPAPRDGIVTEILV"
measurement = 0.1

[[record]]
input_sequence = "HMEDEAVMQLPLSELKGLSPELLAILNGAGYEKLKDVLDLEREDIERIPGMTPERNEQLVAFLAELTE"
measurement = 0.619

[[record]]
input_sequence = "HMFIQLSQEEKKVVEGLQQRSKTHLDALALEVGQNISKTAAMLMELEMKGVVRALPGKYYEL"
measurement = -1.1

[[record]]
input_sequence = "HMQSQIAQLYNPLLGYVKKRINSREDAEDLTQDIFLKLSKSNKDGVDNLKSWLYTIAKNTITDYYRKKKII"
measurement = -0.0844

[[record]]
input_sequence = "HMARDPWDVLGVAKTATNDEIKRAFKRQAMMTHPDKQGGSEERFKEVNEAYSHIKDEQSRAKYQNSQ"
measurement = 0.158

[[record]]
input_sequence = "HMNTGIPHQEVIKKLYSFAEGGDWKGLKEELNRIKEYTLFYNSVKELADSFEINRLIEKLKTYIF"
measurement = -0.127

[[record]]
input_sequence = "HMRTMRHLSVPRQETQQILSQLKAEFALPQGARVQPDPSDSKRTLIPVKEGAESELLSRYPVVHAEP"
measurement = 0.0613

[[record]]
input_sequence = "HMQADKYKSYTATDFLKDKDFLRWQLFNGEEDMLFWGRVIEEYPALRSRVEEGIVLYKDNIR"
measurement = -0.711

[[record]]
input_sequence = "HMNNTIKFSVDSQNSGKRLDIFLTENIKNYTRSFLKKLIENRQVKLNNNFIISPSERVKFKDQININILQ"
measurement = -1.8

[[record]]
input_sequence = "HMTLGSVRTVRQVLDDGRLLVADSGGNVTLVRRAGTLAKENVNTGDRVSVDSSVRFALTLIPV"
measurement = -0.931

[[record]]
input_sequence = "HMGNHMSFKMWGEQLQEAFRALETYDTQKAKTILNELVRFPIDSDITKALKGIISNIDDMMA"
measurement = -0.881

[[record]]
input_sequence = "HMGPSSIVVYVSGAVKTPGVYTLAPGSRVDDAVRAAGGLSERAESAGTNLAAQLSDGEHVHVAAAGE"
measurement = 0.0915

[[record]]
input_sequence = "HMQGQVLQETARKARSQLDSEIPGFNDALYQNLIKSSENYGYKAEEVAQWVDPRAIKVLNDAYQFQQLKAG"
measurement = -0.172

[[record]]
input_sequence = "HMSGLEDIKKKILEDAGIKKGSVKFVKVDKDYDDGIWKYEIDFVYDGKEYEYEIEVETGKILSRKTEKSD"
measurement = 0.00588

[[record]]
input_sequence = "HMAKNDSGLNNHTFNTIRDALQKALTDGPQEAKKLTENLPFPADKIITVIRYLADHDEHFSLEDGIISLT"
measurement = 0.609

[[record]]
input_sequence = "HMRNANENTLKDLPVAVPNIHVSNIEEKKDFHLIQLEYSQEFDPREDLFNFAVNSSWVILKMTPT"
measurement = 0.215

[[record]]
input_sequence = "HMLERPLKLKSHYVSTIYEKVAVQYSEGEEKKSVMGTLIEVNQDTIVLDDRGTIIEIPFKSITRAKTVF"
measurement = -3.6

[[record]]
input_sequence = "HMVQIIQLQGTDKRLYELVAPLVMNPEILKQNYNYPFRTSEDFVWFVAVDKKKVIGFIPVEEKKKEYVI"
measurement = -0.108


Data origin, for the record: the domain aggregation screens of Martell et al. (2025)
